Target: SH3 domain of α‐spectrin (Gallus gallus, UniProt P07751)
Construct: SH3 domain of α‐spectrin, has 60 residues
Sequence (P07751 967-1026 limits assumed): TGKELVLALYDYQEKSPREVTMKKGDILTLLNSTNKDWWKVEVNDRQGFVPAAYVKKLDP
Assay: NMR titration (2D 1H-15N HSQC), p41 binding by SH3
Conditions: system as introduced in text; pH 3.5; 8 ligand-to-protein ratios; no spread given; read-out: KD (dissociation constant)
Ends that are not written are not given here.
QUANTITY: Kd

Hello, please tell me recorded Kd for this one: APSYSPPPPP [p41]
9 mM

The origin of these recorded values is paper PMC7756666.
